Here the recorded kinase still bound, per cent of control is given for each entry.
Target: UniProt Q9BWU1
Sequence (Q9BWU1 whole entry, looked up): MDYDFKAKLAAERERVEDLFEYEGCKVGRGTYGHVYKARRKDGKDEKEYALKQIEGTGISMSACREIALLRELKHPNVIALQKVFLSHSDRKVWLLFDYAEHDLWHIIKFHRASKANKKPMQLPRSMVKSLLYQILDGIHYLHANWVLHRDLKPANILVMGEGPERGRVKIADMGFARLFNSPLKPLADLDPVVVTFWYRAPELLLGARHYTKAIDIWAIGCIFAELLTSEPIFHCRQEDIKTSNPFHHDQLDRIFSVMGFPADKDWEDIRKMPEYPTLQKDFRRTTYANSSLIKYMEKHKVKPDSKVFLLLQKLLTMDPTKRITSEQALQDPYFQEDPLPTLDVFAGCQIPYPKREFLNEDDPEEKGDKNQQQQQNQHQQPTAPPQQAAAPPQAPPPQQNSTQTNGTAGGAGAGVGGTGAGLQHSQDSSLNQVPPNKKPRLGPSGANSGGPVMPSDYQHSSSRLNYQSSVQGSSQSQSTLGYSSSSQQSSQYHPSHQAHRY
Assay: KINOMEscan competition binding
Conditions: compound 10.0 µM
ENDPOINT_LABEL: kinase still bound, per cent of control (%)

| LINE_NOTATION | MEASUREMENT_UNITS | READOUT_VALUE |
| --- | --- | --- |
| CCOc1cc(N2CCC(N3CCCCC3)CC2)ccc1Nc1nc(Nc2ccccc2S(=O)(=O)C(C)C)c2cn[nH]c2n1 | % | 100 |
| CCN1CCN(Cc2ccc(NC(=O)c3ccc(C)c(/C=C/c4cnc(Nc5cc(N6CCNCC6)nc(C)n5)cn4)c3)cc2C(F)(F)F)CC1 | % | 3.5 |
| CCN1CCN(Cc2ccc(NC(=O)c3ccc(C)c(Oc4ccnc5[nH]ccc45)c3)cc2C(F)(F)F)CC1 | % | 0.1 |
| COc1cc(N2CCC(N3CCN(C)CC3)CC2)ccc1Nc1ncc(Cl)c(Nc2ccccc2S(=O)(=O)C(C)C)n1 | % | 40 |

* * *

Molecular target: UniProtKB P21127
Sequence (P21127 whole entry, looked up): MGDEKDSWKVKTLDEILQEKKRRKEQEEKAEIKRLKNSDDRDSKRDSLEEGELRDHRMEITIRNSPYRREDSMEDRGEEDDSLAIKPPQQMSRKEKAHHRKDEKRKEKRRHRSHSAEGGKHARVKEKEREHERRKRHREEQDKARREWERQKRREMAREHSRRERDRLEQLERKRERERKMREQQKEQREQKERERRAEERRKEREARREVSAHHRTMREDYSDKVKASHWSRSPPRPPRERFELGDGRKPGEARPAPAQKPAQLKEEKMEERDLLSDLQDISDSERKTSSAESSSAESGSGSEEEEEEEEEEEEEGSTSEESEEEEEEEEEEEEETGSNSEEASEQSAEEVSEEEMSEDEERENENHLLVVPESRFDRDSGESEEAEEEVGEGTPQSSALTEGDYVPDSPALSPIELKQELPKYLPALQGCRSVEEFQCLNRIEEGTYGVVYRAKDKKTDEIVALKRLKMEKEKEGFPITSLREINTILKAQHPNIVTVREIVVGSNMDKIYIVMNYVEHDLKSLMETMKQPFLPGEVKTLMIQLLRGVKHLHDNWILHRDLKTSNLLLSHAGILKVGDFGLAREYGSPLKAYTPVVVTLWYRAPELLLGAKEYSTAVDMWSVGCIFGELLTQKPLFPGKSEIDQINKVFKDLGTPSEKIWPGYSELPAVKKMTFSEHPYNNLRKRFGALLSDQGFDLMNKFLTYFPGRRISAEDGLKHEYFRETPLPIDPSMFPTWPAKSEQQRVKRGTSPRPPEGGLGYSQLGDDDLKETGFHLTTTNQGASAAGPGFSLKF
Experiment: KINOMEscan competition binding
Details: compound 10.0 µM
Here the recorded kinase still bound, per cent of control is given for each entry.
ENDPOINT_LABEL: kinase still bound, per cent of control (%)

| LINE_NOTATION | READOUT_VALUE |
| --- | --- |
| COc1cc(N2CCC(N3CCN(C)CC3)CC2)ccc1Nc1ncc(Cl)c(Nc2ccccc2S(=O)(=O)C(C)C)n1 | 40 |
| CCN1CCN(Cc2ccc(NC(=O)c3ccc(C)c(/C=C/c4cnc(Nc5cc(N6CCNCC6)nc(C)n5)cn4)c3)cc2C(F)(F)F)CC1 | 78 |
| CCN1CCN(Cc2ccc(NC(=O)c3ccc(C)c(Oc4ccnc5[nH]ccc45)c3)cc2C(F)(F)F)CC1 | 0.35 |
| CCOc1cc(N2CCC(N3CCCCC3)CC2)ccc1Nc1nc(Nc2ccccc2S(=O)(=O)C(C)C)c2cn[nH]c2n1 | 100 |

* * *

Here the recorded kinase still bound, per cent of control is given for each entry.
Target: YES1 (human)
Test: KINOMEscan competition binding
Conditions: compound 10.0 µM

| LINE_NOTATION | MEASUREMENT_UNITS | kinase still bound, per cent of control |
| --- | --- | --- |
| COc1cc(N2CCC(N3CCN(C)CC3)CC2)ccc1Nc1ncc(Cl)c(Nc2ccccc2S(=O)(=O)C(C)C)n1 | % | 0.1 |
| CCOc1cc(N2CCC(N3CCCCC3)CC2)ccc1Nc1nc(Nc2ccccc2S(=O)(=O)C(C)C)c2cn[nH]c2n1 | % | 84 |
| CCN1CCN(Cc2ccc(NC(=O)c3ccc(C)c(/C=C/c4cnc(Nc5cc(N6CCNCC6)nc(C)n5)cn4)c3)cc2C(F)(F)F)CC1 | % | 1.4 |
| CCN1CCN(Cc2ccc(NC(=O)c3ccc(C)c(Oc4ccnc5[nH]ccc45)c3)cc2C(F)(F)F)CC1 | % | 1.6 |

* * *

Target: GAK (human) (UniProt O14976)
Sequence (O14976 whole entry, looked up): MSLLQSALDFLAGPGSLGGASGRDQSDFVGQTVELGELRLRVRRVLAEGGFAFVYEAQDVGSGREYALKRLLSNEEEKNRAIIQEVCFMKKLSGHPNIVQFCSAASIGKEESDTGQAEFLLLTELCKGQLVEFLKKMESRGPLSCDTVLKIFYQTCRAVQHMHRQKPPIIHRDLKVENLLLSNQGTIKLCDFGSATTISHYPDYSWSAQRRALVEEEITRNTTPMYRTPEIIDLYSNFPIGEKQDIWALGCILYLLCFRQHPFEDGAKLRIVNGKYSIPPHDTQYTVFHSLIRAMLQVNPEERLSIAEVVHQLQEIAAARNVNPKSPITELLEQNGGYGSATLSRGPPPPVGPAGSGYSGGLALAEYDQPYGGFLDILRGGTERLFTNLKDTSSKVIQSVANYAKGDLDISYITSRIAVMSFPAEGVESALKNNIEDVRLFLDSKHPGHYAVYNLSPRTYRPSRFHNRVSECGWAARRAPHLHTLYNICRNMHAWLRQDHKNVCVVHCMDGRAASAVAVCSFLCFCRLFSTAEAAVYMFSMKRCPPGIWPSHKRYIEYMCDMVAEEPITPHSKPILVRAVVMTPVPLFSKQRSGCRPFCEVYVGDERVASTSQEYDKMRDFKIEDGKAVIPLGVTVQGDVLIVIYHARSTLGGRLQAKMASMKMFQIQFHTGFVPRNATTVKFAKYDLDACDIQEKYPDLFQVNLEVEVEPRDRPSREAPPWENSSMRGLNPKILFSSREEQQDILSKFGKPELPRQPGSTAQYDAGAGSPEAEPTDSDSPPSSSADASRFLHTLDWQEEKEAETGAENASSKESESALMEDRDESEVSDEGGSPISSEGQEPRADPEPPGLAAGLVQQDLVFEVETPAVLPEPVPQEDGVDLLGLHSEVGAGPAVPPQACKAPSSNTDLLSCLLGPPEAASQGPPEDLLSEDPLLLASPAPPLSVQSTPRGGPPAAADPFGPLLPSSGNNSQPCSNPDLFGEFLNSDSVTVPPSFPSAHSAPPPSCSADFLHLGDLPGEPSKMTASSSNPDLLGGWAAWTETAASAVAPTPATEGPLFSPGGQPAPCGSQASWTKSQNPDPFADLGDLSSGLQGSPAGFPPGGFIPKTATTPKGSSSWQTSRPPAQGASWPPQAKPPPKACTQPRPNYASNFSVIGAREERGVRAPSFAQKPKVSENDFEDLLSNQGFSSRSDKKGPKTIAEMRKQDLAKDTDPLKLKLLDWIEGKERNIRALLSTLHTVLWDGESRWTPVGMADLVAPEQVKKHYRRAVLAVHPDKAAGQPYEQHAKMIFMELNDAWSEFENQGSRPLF
Assay: KINOMEscan competition binding
Details: compound 10.0 µM
Here the recorded kinase still bound, per cent of control is given for each entry.

| LINE_NOTATION | TESTED_TARGET | kinase still bound, per cent of control / % |
| --- | --- | --- |
| CCN1CCN(Cc2ccc(NC(=O)c3ccc(C)c(Oc4ccnc5[nH]ccc45)c3)cc2C(F)(F)F)CC1 | GAK (human) (UniProt O14976) | 31 |
| COc1cc(N2CCC(N3CCN(C)CC3)CC2)ccc1Nc1ncc(Cl)c(Nc2ccccc2S(=O)(=O)C(C)C)n1 | GAK (human) (UniProt O14976) | 0.1 |
| CCOc1cc(N2CCC(N3CCCCC3)CC2)ccc1Nc1nc(Nc2ccccc2S(=O)(=O)C(C)C)c2cn[nH]c2n1 | GAK (human) (UniProt O14976) | 6 |
| CCN1CCN(Cc2ccc(NC(=O)c3ccc(C)c(/C=C/c4cnc(Nc5cc(N6CCNCC6)nc(C)n5)cn4)c3)cc2C(F)(F)F)CC1 | GAK (human) (UniProt O14976) | 51 |

Origin of the recorded values: the kinase profiling compilation of Christmann-Franck et al. (2016)
